tgt: human Nav1.7 (Homo sapiens, UniProt Q15858)
Sequence (Q15858 1-1977 isoform Q15858-3): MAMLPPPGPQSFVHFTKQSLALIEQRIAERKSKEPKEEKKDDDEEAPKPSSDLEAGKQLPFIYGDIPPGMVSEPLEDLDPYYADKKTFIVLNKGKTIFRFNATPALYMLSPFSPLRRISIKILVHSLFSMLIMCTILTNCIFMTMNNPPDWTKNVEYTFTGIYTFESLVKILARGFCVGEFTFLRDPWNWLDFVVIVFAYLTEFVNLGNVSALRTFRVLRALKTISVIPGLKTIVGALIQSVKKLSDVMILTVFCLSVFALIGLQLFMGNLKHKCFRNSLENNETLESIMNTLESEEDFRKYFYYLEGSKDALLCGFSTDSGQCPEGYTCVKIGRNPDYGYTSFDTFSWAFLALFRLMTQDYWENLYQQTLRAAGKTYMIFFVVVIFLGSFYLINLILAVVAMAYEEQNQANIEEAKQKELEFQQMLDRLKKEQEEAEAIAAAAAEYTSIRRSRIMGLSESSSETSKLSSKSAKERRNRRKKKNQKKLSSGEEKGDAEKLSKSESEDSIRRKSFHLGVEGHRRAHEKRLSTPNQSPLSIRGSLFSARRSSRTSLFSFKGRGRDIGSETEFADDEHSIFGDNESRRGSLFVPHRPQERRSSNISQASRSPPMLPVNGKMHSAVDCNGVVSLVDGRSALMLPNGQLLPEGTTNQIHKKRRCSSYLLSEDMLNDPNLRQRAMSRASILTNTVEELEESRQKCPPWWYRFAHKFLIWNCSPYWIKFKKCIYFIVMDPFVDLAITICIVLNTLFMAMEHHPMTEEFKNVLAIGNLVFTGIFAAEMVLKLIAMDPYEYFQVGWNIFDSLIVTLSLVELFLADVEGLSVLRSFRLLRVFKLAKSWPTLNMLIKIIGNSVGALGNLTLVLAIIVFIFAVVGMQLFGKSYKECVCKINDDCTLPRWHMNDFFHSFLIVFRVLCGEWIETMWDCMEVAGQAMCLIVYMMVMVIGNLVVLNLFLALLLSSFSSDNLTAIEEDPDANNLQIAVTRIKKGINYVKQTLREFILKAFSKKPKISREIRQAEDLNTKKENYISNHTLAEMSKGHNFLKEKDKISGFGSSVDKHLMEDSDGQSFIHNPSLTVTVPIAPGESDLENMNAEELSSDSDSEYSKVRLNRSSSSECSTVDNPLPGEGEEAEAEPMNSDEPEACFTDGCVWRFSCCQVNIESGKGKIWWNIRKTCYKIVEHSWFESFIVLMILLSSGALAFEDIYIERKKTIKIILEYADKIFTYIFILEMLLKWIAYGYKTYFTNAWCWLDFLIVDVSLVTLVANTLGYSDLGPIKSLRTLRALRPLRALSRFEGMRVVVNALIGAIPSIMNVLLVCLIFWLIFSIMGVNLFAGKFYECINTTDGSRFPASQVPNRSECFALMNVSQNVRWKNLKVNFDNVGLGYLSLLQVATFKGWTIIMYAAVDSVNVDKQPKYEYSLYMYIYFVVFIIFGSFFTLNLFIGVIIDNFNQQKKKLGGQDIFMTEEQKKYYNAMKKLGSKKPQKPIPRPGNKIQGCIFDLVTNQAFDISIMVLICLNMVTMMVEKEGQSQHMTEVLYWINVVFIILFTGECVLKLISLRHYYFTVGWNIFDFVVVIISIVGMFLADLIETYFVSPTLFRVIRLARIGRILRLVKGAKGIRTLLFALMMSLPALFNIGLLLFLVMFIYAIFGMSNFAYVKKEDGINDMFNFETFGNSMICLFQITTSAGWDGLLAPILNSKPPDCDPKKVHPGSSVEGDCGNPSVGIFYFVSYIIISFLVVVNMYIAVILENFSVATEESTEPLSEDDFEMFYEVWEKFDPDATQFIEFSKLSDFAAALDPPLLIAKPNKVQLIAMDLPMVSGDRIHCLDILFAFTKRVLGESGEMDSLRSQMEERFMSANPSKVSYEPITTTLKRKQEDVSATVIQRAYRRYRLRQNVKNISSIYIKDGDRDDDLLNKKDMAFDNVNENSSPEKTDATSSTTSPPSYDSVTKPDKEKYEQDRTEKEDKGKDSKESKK
method_summary: FLIPR or FLIPR TETRA sodium dye assay with KCl and test article pre-incubation (CoroNa Green, veratridine + scorpion venom)
Assay type: cell-based
cond: recombinant human Nav1.7 in HEK293 cells
metric_name: log10 IC50 (log10 of the value in µM)

{"compound_smiles": "C[C@H](Nc1cc(C(N)=O)nc(-c2ccc3c(c2)CCCCN3C2CCCCC2)n1)C(N)=O", "log10 IC50": 0.69}
{"compound_smiles": "NC(=O)[C@H](O)[C@@H](O)c1cccc(-c2ccc3c(c2)OCCCN3c2ccc(C(F)(F)F)cc2)n1", "log10 IC50": -0.67}
{"compound_smiles": "NC(=O)c1cc([C@H](O)CO)cc(-c2ccc3c(c2)CN(CC2CC2)CCN3c2ccc(C(F)(F)F)cc2)n1", "log10 IC50": 0.86}
{"compound_smiles": "NC(=O)c1cccc(-c2ccc3c(c2)CCCN3c2ccc(C(F)(F)F)cc2)n1", "log10 IC50": -0.04}
{"compound_smiles": "NC(=O)c1cc(CN[C@H]2CCNC2=O)nc(-c2ccc3c(c2)OCCCN3c2ccc(C(F)(F)F)cc2)n1", "log10 IC50": -0.96}
{"compound_smiles": "NC(=O)c1cccc(-c2ccc3c(c2)CCCCN3c2ccc(C(F)(F)F)cc2)n1", "log10 IC50": -0.45}
{"compound_smiles": "CC(=O)N1CCN(c2ccc(C(F)(F)F)cc2)c2ccc(-c3cccc(C(N)=O)n3)cc2C1", "log10 IC50": -0.43}
{"compound_smiles": "NC(=O)c1cccc(-c2ccc3c(c2)OCCCN3c2ccc(C(F)(F)F)cc2)n1", "log10 IC50": -0.47}
